The following molecules are listed with their measured MTD values.
Test system: Human alphaherpesvirus 2
Assay Procedure: In vivo maximum tolerated dose against herpes simplex virus-2 (HSV-2) by oral administration in female mice
Type: functional
Give the value, in units of mg/kg, as a plain number.

Enquiry: Fill in reported MTD for this entry: CCn1cc(C(=O)NN)c(=O)c2ccc(-c3ccncc3)cc21
Return: 100

Enquiry: Fill in reported MTD for this entry: NC(=O)c1cn(-c2ccncc2)c2cc(-c3ccncc3)ccc2c1=O
Return: 75

Enquiry: Fill in reported MTD for this entry: NC(=O)c1cn(-c2ccc(Br)cc2)c2cc(-c3ccncc3)ccc2c1=O
Return: 50

Enquiry: Fill in reported MTD for this entry: NC(=O)c1cn(-c2ccccc2F)c2cc(-c3ccncc3)ccc2c1=O
Return: 100

Enquiry: Fill in reported MTD for this entry: CCCCCn1cc(C(N)=O)c(=O)c2ccc(-c3ccncc3)cc21
Return: 50

Enquiry: Fill in reported MTD for this entry: NC(=O)c1cn(-c2ccccc2)c2cc(-c3ccncc3)ccc2c1=O
Return: 50

Enquiry: Fill in reported MTD for this entry: NC(=O)c1cn(-c2ccc(F)cc2)c2cc(-c3ccncc3)ccc2c1=O
Return: 50

Enquiry: Fill in reported MTD for this entry: CCn1cc(C(=O)NO)c(=O)c2ccc(-c3ccncc3)cc21
Return: 100

Enquiry: Fill in reported MTD for this entry: CCn1cc(C(=O)NC)c(=O)c2ccc(-c3ccncc3)cc21
Return: 50

###

The following molecules are listed with their measured MTL values.
Tested on: Human alphaherpesvirus 2
Assay Procedure: In vitro maximum tolerated level against herpes simplex virus-2 (HSV-2) by plaque-reduction assay in vero cells
Assay type: functional

# Smiles Input, MTL
rows = [
    ("NC(=O)c1cn(-c2ccc(F)cc2)c2cc(Cl)ccc2c1=O", ">12.5 µg/mL"),
    ("CCn1cc(C(N)=O)c(=O)c2ccc(-c3ccc(N)cc3)cc21", "6.25 µg/mL"),
]

Enquiry: Fill in reported MTL for this entry: CCn1cc(C(=O)N(C)C)c(=O)c2ccc(-c3ccncc3)cc21
Return: >100 µg/mL

Enquiry: Fill in reported MTL for this entry: CCn1cc(C(N)=O)c(=O)c2ccc(I)cc21
Return: >100 µg/mL

Enquiry: Fill in reported MTL for this entry: CCn1cc(C(=O)NC)c(=O)c2ccc(-c3ccncc3)cc21
Return: >25 µg/mL

Enquiry: Fill in reported MTL for this entry: NC(=O)c1cn(-c2ccc(F)cc2)c2cc(-c3ccccc3)ccc2c1=O
Return: 12.5 µg/mL

Enquiry: Fill in reported MTL for this entry: COc1ccc(-n2cc(C(N)=O)c(=O)c3ccc(-c4ccncc4)cc32)cc1
Return: >25 µg/mL

Enquiry: Fill in reported MTL for this entry: NC(=O)c1cn(-c2ccncc2)c2cc(-c3ccncc3)ccc2c1=O
Return: >200 µg/mL

Enquiry: Fill in reported MTL for this entry: NC(=O)c1cn(-c2ccc(Cl)cc2)c2cc(-c3ccncc3)ccc2c1=O
Return: >25 µg/mL

Enquiry: Fill in reported MTL for this entry: NC(=O)c1cn(-c2ccccc2F)c2cc(-c3ccncc3)ccc2c1=O
Return: 1.6 µg/mL

Enquiry: Fill in reported MTL for this entry: CCn1cc(C2=NCCN2)c(=O)c2ccc(-c3ccncc3)cc21
Return: >100 µg/mL

Enquiry: Fill in reported MTL for this entry: CCn1cc(C(=O)NCCN)c(=O)c2ccc(-c3ccncc3)cc21
Return: >100 µg/mL

Enquiry: Fill in reported MTL for this entry: CCn1cc(C(=O)N(C)O)c(=O)c2ccc(-c3ccncc3)cc21
Return: 50 µg/mL

Enquiry: Fill in reported MTL for this entry: CCn1cc(C(=O)NO)c(=O)c2ccc(-c3ccncc3)cc21
Return: 25 µg/mL

Enquiry: Fill in reported MTL for this entry: CCn1cc(C(=O)NCCN(C)C)c(=O)c2ccc(-c3ccncc3)cc21
Return: >100 µg/mL

Enquiry: Fill in reported MTL for this entry: Cc1ccc(-n2cc(C(N)=O)c(=O)c3ccc(-c4ccncc4)cc32)cc1
Return: >25 µg/mL

Enquiry: Fill in reported MTL for this entry: NC(=O)c1cn(Cc2ccc(Cl)c(Cl)c2)c2cc(-c3ccncc3)ccc2c1=O
Return: >100 µg/mL

Enquiry: Fill in reported MTL for this entry: NC(=O)c1cn(-c2ccc(C(F)(F)F)cc2)c2cc(-c3ccncc3)ccc2c1=O
Return: >100 µg/mL

Enquiry: Fill in reported MTL for this entry: CCn1cc(C(N)=O)c(=O)c2ccc(-c3ccno3)cc21
Return: 12.5 µg/mL

Enquiry: Fill in reported MTL for this entry: NC(=O)c1cnc2cc(-c3ccncc3)ccc2c1O
Return: 12.5 µg/mL

Enquiry: Fill in reported MTL for this entry: CCn1cc(C(=O)NCCO)c(=O)c2ccc(-c3ccncc3)cc21
Return: 25 µg/mL

Enquiry: Fill in reported MTL for this entry: Cc1cc(-c2ccc3c(=O)c(C(N)=O)cn(-c4ccc(F)cc4)c3c2)on1
Return: >100 µg/mL
